Recorded growth, one value per entry.
# Test system: IGROV1 ovarian
# ASSAY_DETAILS: NCI-60 one-dose screen, 48 h (100 = growth as untreated, 0 = no growth, -100 = all killed)
# CONDITION_DESCRIPTION: 10 µM unless noted
About 83,000 compounds went through this panel and 20% of them were active in at least one assay; those are over-represented in the sample as a whole.
Record the value in %, omitting the unit from your answer.

Given "O=C1Nc2ccc(F)cc2/C1=C/c1nc(-c2ccc(F)cc2)n2ccccc12" , respond with its growth.
97.8

Supply growth value. Item: CCN(CC)c1ccc(C(O)C2=CC(=O)c3ccccc3C2=O)cc1 (configuration not stated)
-42.7

Respond only with growth recorded for "O=C1C(=O)c2ccc(Br)cc2-c2cc(Br)ccc21"
68.7

Specify measured growth for CCCCCCC(C)(O)c1ccccc1 (configuration not stated) .
122

Output measured growth for this item: "COC(=O)CCC1=C(C)C(C)=N/C1=C\c1[nH]c(-c2ccc[nH]2)cc1OC"
18.4

Give the reported value of growth for this record: "CNc1ccc(CSc2ccc(Cl)cc2)cc1"
81.9

Answer with the recorded growth for the compound listed here: CCC1(c2ccccc2)Oc2ccccc2-n2c(C#N)c3ccccc3c2C1=O (configuration not stated)
93.9

// fetch growth given entry "C=Cc1nn2c(CCC(=O)c3nc4ccccc4[nH]3)nnc2s1"
106

Note down growth recorded for "O=[N+]([O-])c1ccc2c(c1)S(=O)c1cc([N+](=O)[O-])ccc1N2"
117

Identify the reported growth for the following entry. "CCN(CC)CCCNCCCNc1cc(OC)cc2cccnc12"
73.9

Provide only the value of recorded growth for "S=C(c1ccccc1)N1CCN(c2cccc(Cl)c2)CC1"
107

Name the recorded growth of the compound listed here: "NNC(=O)NO"
108

====

# System: LOX IMVI melanoma
# ASSAY_DETAILS: NCI-60 one-dose screen, 48 h
# CONDITION_DESCRIPTION: 10 µM unless noted
About 83,000 compounds went through this panel and 20% of them were active in at least one assay; those are over-represented in the sample as a whole. Active and inactive are the calls of the source. How the source made its calls: active means growth percent below 10; inactive means the rest.
Log the outcome using a class from True = active, False = inactive

# example entries with known answers
Nc1nonc1-c1nc2ccccc2n1CC(=O)Nc1ccc2c(c1)COC2=O    False
COC(=O)CCC1=C(CC(=O)OC)C(C)=N/C1=C\c1[nH]c(-c2ccc[nH]2)cc1OC    True
CC(=O)Nc1ccc2c(c1)Cc1c(F)c(F)c(F)c(F)c1-2    False
COc1cccc2c1O/C(=C\c1c([N+](=O)[O-])ncn1C)C2=O    False
CCOC(=O)C1=C(C)N2C(=NC3=C(CCC/C3=C\c3ccc(Cl)cc3)C2c2ccc(Cl)cc2)S1 (stereo not drawn)    True

I would be grateful if you could indicate the recorded call for "O=C1OCCCCCCCCCC#Cc2ccccc21" .
False

Hi team, can someone confirm the assay call for "CCCCn1c(Cc2ccc(Cl)cc2)nc2cc(OC)c(OC)cc2c1=O" ?
False

====

# System: NCI-H460 lung
# ASSAY_DETAILS: NCI-60 one-dose screen, 48 h (100 = growth as untreated, 0 = no growth, -100 = all killed)
# CONDITION_DESCRIPTION: 10 µM unless noted
The panel holds about 83,000 compounds, 20% with a hit somewhere; the sample as a whole holds those more often. Active and inactive are the calls of the source. The calls were made as follows: active = growth percent below 10; inactive = the rest.
growth values, listed per item

CCOc1cccc(C2CC(=O)Nc3cc4c(cc32)OCO4)c1 (stereo not given)    94.2% (inactive)

// output growth; input "O=[N+]([O-])c1ccc(N/N=C\c2ccccc2[N+](=O)[O-])nc1" ; system NCI-H460 lung
101% (inactive)

Fill: growth (NCI-H460 lung) for this molecule "Cn1cc(-c2csc(-c3cn(C)c4ncccc34)n2)c2cc(F)cnc21"
84.1% (inactive)

Would you please give the reported growth of "CC(=O)n1c2ccccc2c2ccccc21" with NCI-H460 lung?
117% (inactive)

Write down measured growth (NCI-H460 lung) for this molecule. "Clc1ncn[nH]1"
111% (inactive)

Report growth on NCI-H460 lung for this entry: "Cc1nn(-c2ccccc2)c(Cl)c1C(CC(=O)c1ccc(Cl)cc1)CC(=O)c1ccc(Cl)cc1"
90.1% (inactive)

Report measured growth on NCI-H460 lung; entry: "Cc1cc(NCCCNc2ccnc3cc(Cl)ccc23)nc(N2CCN(C)CC2)n1"
24.1% (inactive)

Give growth; test system NCI-H460 lung; molecule "c1ccc(-n2nnnc2-c2cccc3ccccc23)cc1"
9.98% (active)

Lab note: NCI-H460 lung assay, enter growth for "CN(C)c1ccc2c(c1)/C(=N/O)c1ccccc1-2" here
97.2% (inactive)

Fill: growth (NCI-H460 lung) for this molecule "N#Cc1c(N)[nH]c(S)c1C#N"
107% (inactive)

GET growth | system: NCI-H460 lung | item: "Cn1c(N)c(N=O)c(=O)[nH]c1=O"
107% (inactive)

Please tell me the measured growth for "COc1ccc(COC(C)=O)cc1" ; system: NCI-H460 lung.
111% (inactive)

Find the measured growth of "NC(=O)c1ncn([C@@H]2O[C@H](CO)[C@@H](O)[C@H]2O)n1" with NCI-H460 lung as test system.
100% (inactive)
